molecular target: histamine-3 receptor (Homo sapiens); construct: expressed in transfected cells; host or cells: HEK293 and CHO-K1 (membrane specimen); assay: Histamine analogue-binding inhibition test ([3H]N-α-methylhistamine binding to membrane specimen); settings: membrane of histamine-3 receptor expressing cells, 25° C., 2 hours; read-out: 50% inhibitory concentration (IC50) to specific N-α-methylhistamine binding
Sequence (Q9Y5N1 whole entry): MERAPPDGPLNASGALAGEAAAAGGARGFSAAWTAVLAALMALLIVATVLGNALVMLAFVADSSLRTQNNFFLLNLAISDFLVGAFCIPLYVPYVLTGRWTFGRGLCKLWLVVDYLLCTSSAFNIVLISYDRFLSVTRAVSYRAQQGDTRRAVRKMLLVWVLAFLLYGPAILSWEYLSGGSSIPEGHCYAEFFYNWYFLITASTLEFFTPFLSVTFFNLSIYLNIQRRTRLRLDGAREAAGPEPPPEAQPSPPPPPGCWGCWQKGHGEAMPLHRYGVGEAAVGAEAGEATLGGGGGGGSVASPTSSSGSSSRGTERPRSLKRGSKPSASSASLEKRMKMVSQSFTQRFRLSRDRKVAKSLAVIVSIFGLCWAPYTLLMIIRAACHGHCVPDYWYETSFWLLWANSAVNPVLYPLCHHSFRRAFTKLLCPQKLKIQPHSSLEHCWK
parameter measured: IC50 (nM)
Return type: number; implicit unit nM.

The reported IC50 of the molecule N#Cc1ccc(-c2cnc(OC3CCN(C4CCCC4)CC3)nc2)cc1 was 15

* * *

assay: Brain/cerebrospinal fluid migration test; type: in vivo, rat; settings: rat, plasma; SD male rats, 2 hours after oral administration (10 mg/kg); read-out: plasma concentration
parameter measured: concentration at 2 h (nM)
Return type: number; implicit unit nM.

The reported concentration at 2 h of the compound N#Cc1ccc(-c2cnc(OC3CCN(C4CCCC4)CC3)nc2)cc1 was 540

* * *

Catalogue of IC50 values
target: histamine-3 receptor (Homo sapiens); construct: expressed in transfected cells; host or cells: HEK293 and CHO-K1 (membrane specimen); assay: Histamine analogue-binding inhibition test ([35S]GTPγS binding in presence of R-methylhistamine, SPA); type: biochemical; details: 20 nM R-methylhistamine, 25° C., 3 hours; read-out: IC50 (nM) to specific [35S]GTPγS binding
Return type: number; implicit unit nM.

c1cn2cnnc2cc1-c1cnc(OC2CCN(C3CCCC3)CC2)nc1: 1.2
N#Cc1ccc(-c2cnc(OC3CCN(C4CCCC4)CC3)nc2)cc1: 1.9
CS(=O)(=O)c1ccc(-c2cnc(OC3CCN(C4CCCC4)CC3)nc2)cc1: 1.3
FC(F)(F)c1ccc(-c2cnc(OC3CCN(C4CCCC4)CC3)nc2)cc1: 1.4

IC50 on histamine-3 receptor (Homo sapiens) for Cn1cc(-c2ccc(OC3CCN(C4CCC4)CC3)nc2)ccc1=O is 0.45

IC50 on histamine-3 receptor (Homo sapiens) for O=C(c1ccc(-c2cnc(OC3CCN(C4CCCC4)CC3)nc2)cc1)N1CCCC1 is 1.2

IC50 on histamine-3 receptor (Homo sapiens) for CC(C)N1CCC(Oc2ccc(-c3ccc(=O)n(C)c3)cn2)CC1 is 1.4

Values from patent US8044070B2
